target of assay: T1, recombinant human IgE (human, UniProt P01854-1 1-428)
T1 construct: made in-house (ALK); preloaded on immobilised FcεRIα in the displacement ELISA
T1 sequence (P01854 other isoform, or with tags, fused parts or gaps): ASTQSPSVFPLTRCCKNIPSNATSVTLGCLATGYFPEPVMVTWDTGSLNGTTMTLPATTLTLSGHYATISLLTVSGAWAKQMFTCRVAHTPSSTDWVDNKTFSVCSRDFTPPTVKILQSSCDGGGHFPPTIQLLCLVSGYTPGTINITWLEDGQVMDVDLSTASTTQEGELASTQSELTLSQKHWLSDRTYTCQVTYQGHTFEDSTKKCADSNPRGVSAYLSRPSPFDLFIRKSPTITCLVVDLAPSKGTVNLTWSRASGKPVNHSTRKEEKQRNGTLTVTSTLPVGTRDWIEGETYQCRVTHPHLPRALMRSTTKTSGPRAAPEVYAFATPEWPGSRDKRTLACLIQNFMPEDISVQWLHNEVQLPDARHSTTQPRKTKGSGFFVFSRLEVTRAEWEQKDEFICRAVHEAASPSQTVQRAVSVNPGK
procedure summary: IgE-FcεRIα displacement ELISA
Reported values of Max effect for individual entries

Return Max effect for the following binder: B2A1(G4S)4 (bispecific antibody) QVQLVESGGGLVQAGGSLRLSCAVFGSTFSNNVADWYRQAPGKQRELVARISASGATREYGDSVKGRFTISRDDAKNTMYLQMNNLKPEDTAVYRCHKIEWEDLSRKDYWGQGTQVTVSGGGGSGGGGSGGGGSGGGGSEVQLLESGGGLVQPGGSLRLSCAASGFTFGNYDMAWVRQAPGKRPEWVSSIDTGGDITHYADSVKGRFTISRDNAKNTLYLQMNSLRPEDTAVYWCATDEEYALGPNEFDYYGQGTLVTVS > 95%

Return Max effect for the following binder: sdAb D1 (VHH) VHH: DVQLQESGGGLVQAGGSLRLSCAASGLTFSRCDMGWFRQAPGKEREFVARISANGASTHYADFVKGRFTISRDNAKNTVYLQMNYLKPEDTAVYICAAARVPVTWQLYDYWGQGTQVTVS 0%

Return Max effect for the following binder: sdAb A1 (VHH, also called sdAb 026; IGE026) VHH: EVQLLESGGGLVQPGGSLRLSCAASGFTFGNYDMAWVRQAPGKRPEWVSSIDTGGDITHYADSVKGRFTISRDNAKNTLYLQMNSLRPEDTAVYWCATDEEYALGPNEFDYYGQGTLVTVSS > 95%

Return Max effect for the following binder: B1A1(G4S)2 (bispecific antibody) QVQLQESGGGLVQTGGSLRLSCAVHGRTFSNTGMGWFRQAPGNERQFVAIISPSGTSTYYADSVKGRFTISRDPAKNTVYLQMNSLKMDDTAVYYCAASYGSNWSTLRHQRRNEYDAWGQGTQVAVSGGGGSGGGGSEVQLLESGGGLVQPGGSLRLSCAASGFTFGNYDMAWVRQAPGKRPEWVSSIDTGGDITHYADSVKGRFTISRDNAKNTLYLQMNSLRPEDTAVYWCATDEEYALGPNEFDYYGQGTLVTVSS > 95%

Return Max effect for the following binder: A1A1(G4S)4 (VHH, monospecific, bivalent control of two A1 linked by (G4S)4) EVQLLESGGGLVQPGGSLRLSCAASGFTFGNYDMAWVRQAPGKRPEWVSSIDTGGDITHYADSVKGRFTISRDNAKNTLYLQMNSLRPEDTAVYWCATDEEYALGPNEFDYYGQGTLVTVSGGGGSGGGGSGGGGSGGGGSEVQLLESGGGLVQPGGSLRLSCAASGFTFGNYDMAWVRQAPGKRPEWVSSIDTGGDITHYADSVKGRFTISRDNAKNTLYLQMNSLRPEDTAVYWCATDEEYALGPNEFDYYGQGTLVTVS 90%

Return Max effect for the following binder: A1D2(G4S)4 (bispecific antibody) EVQLLESGGGLVQPGGSLRLSCAASGFTFGNYDMAWVRQAPGKRPEWVSSIDTGGDITHYADSVKGRFTISRDNAKNTLYLQMNSLRPEDTAVYWCATDEEYALGPNEFDYYGQGTLVTVSGGGGSGGGGSGGGGSGGGGSDVQLQESGGGLVEAGGSLRLSCVASGRTFSGWSMGWFRQAPGKEREFVAAISWVGSWIGGTVYSNSVKGRFTISRDNARTTVYLQMNSLKPEDTAVYFCAAANSETPRIFASEYDYWGQGTQVTVS > 95%
